B1: Cyclin-F, residues 28 to 80; numbered along this chain, P41002 (parent)
chain: RNLTILSLPEDVLFHILKWLSVEDILAVRAVHSQLKDLVDNHASVWACASFQE

variants of: B1; experiment: abundance fitness (aPCA) (normalised: wild type 0, dead -1); higher = more abundant; growth selection in yeast, the domain comes from the species named; conditions: Homo sapiens
Property: abundance fitness; scope: individual variants

GET /values?readout=abundance fitness&item= `E10V`
-0.524
